- target.desc: RAD52 (Homo sapiens)
- Construct: made in house
- Sequence (P43351 whole entry): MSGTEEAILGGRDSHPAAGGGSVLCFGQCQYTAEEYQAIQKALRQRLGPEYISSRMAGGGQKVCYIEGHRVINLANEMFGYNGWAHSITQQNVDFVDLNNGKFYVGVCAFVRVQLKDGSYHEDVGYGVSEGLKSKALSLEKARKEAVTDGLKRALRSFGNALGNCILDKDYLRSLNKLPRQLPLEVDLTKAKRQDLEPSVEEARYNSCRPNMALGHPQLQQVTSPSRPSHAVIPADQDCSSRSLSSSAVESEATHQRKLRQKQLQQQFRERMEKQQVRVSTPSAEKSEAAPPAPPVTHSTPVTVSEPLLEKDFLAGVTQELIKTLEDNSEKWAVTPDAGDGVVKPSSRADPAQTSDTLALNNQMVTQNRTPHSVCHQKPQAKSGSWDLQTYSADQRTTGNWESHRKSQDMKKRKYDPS
- run.description: D-loop formation assay
- Format: biochemical
- condition.notes: compound at 10 μM; 32P-labeled ssDNA (oligo 90) and supercoiled pUC19 DNA, 37° C.
recorded.endpoint: D-Loop (% @10 μM) (%)

>>> df
                          compound_structure           target_desc  quantitative_readout
 0  Cc1cc(N2CCCC2)nc2ccc(NC(=S)NCCN3CCCCCC3)cc12  RAD52 (Homo sapiens)                  3.48
 1  CCN(CC)CCNC(=S)Nc1ccc2nc(N3CCN(CC4CCCCC4)CC3)cc(C)c2c1  RAD52 (Homo sapiens)                 62.82
 2  CCN(CC)CCNC(=O)Nc1ccc2nc(N3CCN(CC)CC3)cc(C)c2c1  RAD52 (Homo sapiens)                  77.7
 3  CCN1CCN(c2cc(C)c3cc(NC(=O)NCCCN4CCCCCC4)ccc3n2)CC1  RAD52 (Homo sapiens)                 93.38
 4  CCN1CCN(c2cc(C)c3cc(NC(=S)NCCN)ccc3n2)CC1  RAD52 (Homo sapiens)                 12.77
 5  CCN1CCN(c2cc(C)c3cc(NC(=S)NCCCCCN)ccc3n2)CC1  RAD52 (Homo sapiens)                  0.31
 6  Cc1cc(N2CCCC2)nc2ccc(NC(=S)NCCCN3CCCCC3)cc12  RAD52 (Homo sapiens)                  3.47
 7  CCN1CCN(c2cc(C)c3cc(NC(=S)NCCCN)ccc3n2)CC1  RAD52 (Homo sapiens)                  21.2
 8  CCN(CC)CCNC(=S)Nc1ccc2nc(N3CCN(CCN)CC3)cc(C)c2c1  RAD52 (Homo sapiens)                 35.63
 9  CCN1CCN(c2cc(C)c3cc(NC(=S)NCC(C)(CN)CN)ccc3n2)CC1  RAD52 (Homo sapiens)                 50.05
10  S=C(NCCN1CCCCCC1)Nc1ccc2nc(N3CCNCC3)ccc2c1  RAD52 (Homo sapiens)                 40.29
11  S=C(NCCCN1CCCCCC1)Nc1ccc2nc(N3CCNCC3)ccc2c1  RAD52 (Homo sapiens)                  37.7
12  CCN1CCN(c2cc(C)c3cc(NC(=S)NCCCCN(C)C)ccc3n2)CC1  RAD52 (Homo sapiens)                 35.65
13  Cc1cc(N2CCCC2)nc2ccc(NC(=S)NCCN3CCCCC3)cc12  RAD52 (Homo sapiens)                  2.93
14  CCN1CCN(c2cc(C)c3cc(NC(=S)NCCN4CCCCCC4)ccc3n2)CC1  RAD52 (Homo sapiens)                 23.26
15  CCN(CC)CCNC(=S)Nc1ccc2nc(N3CCNCC3)cc(C)c2c1  RAD52 (Homo sapiens)                 15.65
16  Cc1cc(N2CCCC2)nc2ccc(NC(=S)NCCN3CCN(C)CC3)cc12  RAD52 (Homo sapiens)                  4.72
17  Cc1cc(N2CCN(CC3CCNCC3)CC2)nc2ccc(NC(=S)NCCCN3CCCC3)cc12  RAD52 (Homo sapiens)                  1.04
18  Cc1cc(N2CCCC2)nc2ccc(NC(=S)NCCN3CCNCC3)cc12  RAD52 (Homo sapiens)                  3.99
19  CCN1CCN(c2cc(C)c3cc(NC(=S)NCCCN4CCCCC4)ccc3n2)CC1  RAD52 (Homo sapiens)                 11.42

Entry source: patent US20220388980A1
